Entry source: patent US10233177B2

assayed target: TRPV1 (Rattus norvegicus (Rat), UniProt O35433)
Sequence (O35433 whole entry): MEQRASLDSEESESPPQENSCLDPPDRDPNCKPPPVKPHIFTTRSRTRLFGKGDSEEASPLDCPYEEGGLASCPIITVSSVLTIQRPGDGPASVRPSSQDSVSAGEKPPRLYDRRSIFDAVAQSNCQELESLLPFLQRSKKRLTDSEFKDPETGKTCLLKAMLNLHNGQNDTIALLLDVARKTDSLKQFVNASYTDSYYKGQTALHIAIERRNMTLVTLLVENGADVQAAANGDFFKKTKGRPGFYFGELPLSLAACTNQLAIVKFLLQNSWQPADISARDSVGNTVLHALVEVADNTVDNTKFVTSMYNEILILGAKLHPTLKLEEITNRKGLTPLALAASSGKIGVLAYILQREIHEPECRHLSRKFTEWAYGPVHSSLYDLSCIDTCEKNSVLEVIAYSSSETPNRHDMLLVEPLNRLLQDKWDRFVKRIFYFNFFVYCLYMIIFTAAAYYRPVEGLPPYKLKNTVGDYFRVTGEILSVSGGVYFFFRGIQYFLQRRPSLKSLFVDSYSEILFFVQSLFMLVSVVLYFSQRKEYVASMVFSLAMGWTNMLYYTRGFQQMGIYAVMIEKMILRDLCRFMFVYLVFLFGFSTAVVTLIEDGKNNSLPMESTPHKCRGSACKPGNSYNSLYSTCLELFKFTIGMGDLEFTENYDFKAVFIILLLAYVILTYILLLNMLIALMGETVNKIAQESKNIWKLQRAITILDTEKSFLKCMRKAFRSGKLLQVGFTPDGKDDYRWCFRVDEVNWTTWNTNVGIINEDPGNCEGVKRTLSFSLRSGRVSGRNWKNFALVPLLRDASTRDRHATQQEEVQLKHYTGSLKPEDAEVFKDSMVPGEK
test: Ca2+ fluorescence measurements in cultured rat dorsal root ganglia neurons (capsaicin-induced calcium uptake)
Assay type: cell-based
assay setup: Table 1; against capsaicin-evoked [Ca2+]i mobilization; rat DRG neurons; read-out: IC50
value kind: pIC50
Kindly note that pIC50 refers to -log10 of the concentration in mol/L and answer with the value alone.

Below: 3 molecules and their reported pIC50.
- O=C(NCc1ccc(Cl)cc1N1CCCCC1)Nc1cccc2[nH]c(=O)[nH]c12 [Example 13]: 8.74
- CC(C)(C)c1ccc(CNC(=O)Nc2cccc3[nH]c(=O)[nH]c23)c(N2CCCC2)c1 [Example 75]: 9.08
- O=C(NCc1ccc(C(F)(F)F)o1)Nc1cccc2[nH]c(=O)[nH]c12 [Example 23]: 6.97

Query block: Item CN(C)CCOc1cc(C(F)(F)F)ccc1CNC(=O)Nc1cccc2[nH]c(=O)[nH]c12 [Example 73] has what recorded pIC50?
Result block: 8.74

Query block: And O=C1COc2c(cccc2NC(=O)NCc2ccc(Cl)cc2N2CCCC2)N1 [Example 51] ?
Result block: 10.00

Query block: And CN(C)c1cc(Cl)ccc1CNC(=O)Nc1cccc2[nH]c(=O)[nH]c12 [Example 11] ?
Result block: 7.92

Query block: And O=C(NCc1ccc(Cl)cc1)Nc1cccc2[nH]c(=O)[nH]c12 [Example 10] ?
Result block: 7.10

Query block: And CN(C)c1nc(C(F)(F)F)ccc1CNC(=O)Nc1cccc2c1OCC(=O)N2 [Example 86] ?
Result block: 7.77

* * *

assayed target: TRPV1 (Rattus norvegicus (Rat))
test: Ca2+ fluorescence measurements in cultured rat dorsal root ganglia neurons (capsaicin-induced calcium uptake)
Format: cell-based
assay setup: rat DRG neurons; read-out: IC50 against capsaicin-evoked [Ca2+]i mobilization
pIC50: −log10 of the molar value.
Rule: rule met for pIC50 not less than 9, rule not met for anything less.

Worked examples follow.
- O=C(NCc1ccc(Cl)cc1N1CCCC1)Nc1cccc2[nH]c(=O)[nH]c12: rule not met
- CN(C)c1cc(C(F)(F)F)ccc1CNC(=O)Nc1cccc2c1OCC(=O)N2: rule not met
- O=C(NCc1ccc(C(F)(F)F)cc1N1CCCCC1)Nc1cccc2[nH]c(=O)[nH]c12: rule met

Now for another entry.
Query block: Threshold query (pIC50 >= 9) on `O=C1COc2c(cccc2NC(=O)NCc2ccc(C(F)(F)F)cc2N2CCCCC2)N1`
Result block: rule met

* * *

assayed target: TRPV1 (Rattus norvegicus (Rat), UniProt O35433)
test: Ca2+ fluorescence measurements in cultured rat dorsal root ganglia neurons (capsaicin-induced calcium uptake)
Assay type: cell-based
assay setup: DRG neuron; Table 1, formula IA-C; 300 nM against calcium uptake induced by 30 nM capsaicin; rat DRG neurons; read-out: % inhibition at 300 nM
# inhibition at 0.3 µM listing for each entry below
Numeric answer only, unit % assumed.

Below: 5 molecules and their reported inhibition at 0.3 µM.
• CC(C)(C)c1ccc(CNC(=O)Nc2cccc3[nH]c(=O)[nH]c23)c(N2CCCC2)c1 = 100
• CN(C)c1cc(Cl)ccc1CNC(=O)Nc1cccc2[nH]c(=O)[nH]c12 = 82
• O=C(NCc1ccc(C(F)(F)F)cc1-n1cncn1)Nc1cccc2[nH]c(=O)[nH]c12 = 2
• CN(C)c1nc(C(F)(F)F)ccc1CNC(=O)Nc1cccc2[nH]c(=O)[nH]c12 = 80
• O=C(NCc1ccc(C(F)(F)F)cc1)Nc1cccc2[nH]c(=O)[nH]c12 = 84

Query block: Item `O=C1COc2c(cccc2NC(=O)NCc2ccc(C(F)(F)F)nc2N2CCCC2)N1` has what recorded inhibition at 0.3 µM?
Result block: 100

Query block: And `O=C(NCc1ccc(Cl)cc1N1CCCCC1)Nc1cccc2[nH]c(=O)[nH]c12` ?
Result block: 96

Query block: And `O=C1COc2cccc(NC(=O)NCc3ccc(C(F)(F)F)cc3N3CCCCC3)c2N1` ?
Result block: 47

Query block: And `O=C(NCc1ccc(C(F)(F)F)nc1)Nc1cccc2[nH]c(=O)[nH]c12` ?
Result block: 71

Query block: And `Cc1ccc(CNC(=O)Nc2cccc3c2OCC(=O)N3)c(N2CCCCC2)n1` ?
Result block: 95

Query block: And `O=C1COc2c(cccc2NC(=O)NCc2ccc(Cl)nc2)N1` ?
Result block: 55
